# ASSAY SYSTEM: Cell division control protein 42 homolog (Homo sapiens) (UniProt P60953)
# METHOD DESCRIPTION: inhibition of fluorescent GTP binding to constitutively active Cdc42 – biochemical, multiplex bead flow cytometry, Bodipy-FL-GTP, dose response (AID 1333)
# CONDITION DETAILS: bead-based flow cytometry; series mostly up to 100 µM
Results with a measured potency or affinity are listed apart. Active and inactive are the calls of the source.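 How the source made its calls: active means fitted half-maximal concentration within the tested dose range, moderate curve steepness, a statistically real signal drop, and little compound fluorescence or tag-binding interference; inactive means the rest.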
MEASURE: outcome

CCCNC(=O)C(=O)NCc1ccccn1    inactive
CCN1/C(=C/c2ccc3cc(C)ccc3[n+]2C)Sc2ccc3sccc3c21    inactive
Cc1sc2ncnc(Sc3ccccc3C(=O)O)c2c1C    inactive
COc1ccc(CNc2ccccc2C(=O)O)cc1    inactive
O=S(=O)(Nc1ncn[nH]1)c1ccc2ccccc2c1    inactive
Cc1ccc(Nc2n[nH]c(C)c2[N+](=O)[O-])c(C)c1    inactive
Cc1ccc(Nc2c(F)c(F)c(F)c(F)c2C(=O)O)cc1    inactive
CCCCCN1CC(O)=C(c2nc(-c3ccc(Cl)cc3)cs2)C1=N    inactive
O=C(O)c1ccc(Nc2nc(-c3cc4ccccc4oc3=O)cs2)cc1O    inactive
COc1cc2[nH]c(=S)nc(NCCc3ccc(S(N)(=O)=O)cc3)c2cc1OC    inactive
Cc1ccc(S(=O)(=O)Cc2ccc(C(=O)N3CCN(c4cc(C)ccc4C)CC3)o2)cc1    inactive
CCc1c(C)nc2c(C#N)c[nH]n2c1=O    inactive

====

Catalogue of superoxide response (% of plate) values
# METHOD DESCRIPTION: calorie-restriction mimetic ROS inhibitors, yeast – validation compound set, pilot screen (AID 2706);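 further: yeast exposed to compound for one week at 30 degrees C before staining; 100% = mean of all compound wells on the same plate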
# CONDITION DETAILS: S. cerevisiae aging, superoxide DHE fluorescence; at 10 µM; stronger effect = lower value
MEASURE: superoxide response (% of plate) (%)

CC1(C)C(C=C(Cl)Cl)C1C(=O)N1CCN(Cc2ccccc2)CC1 (stereo unspecified)    102
COc1ccc(OCc2cccc(C(=O)NN)c2)cc1    98.7
O=S(=O)(CCc1nc2ccccc2[nH]1)c1ccc(Cl)cc1    104
N=c1c[n+](N2CCOCC2)[n-]o1    92.1
O=C(Oc1ccccc1)Oc1ccc2c(c1)oc(=O)c1ccccc12    78.2
COc1ccc(C2CC(c3c(O)cc(C)oc3=O)=NCCS2)c(OC)c1 (stereo unspecified)    92
Cc1cccc(Nc2ncccc2C(=O)O)c1C    105
Cc1cccc(-c2ncc(CN3CCN(CC(C)C)C(CCO)C3)cn2)c1 (stereo unspecified)    97.3
COc1cc(OC)c(-c2nc3cnccc3n2C)cc1OC    97
C[C@H]([C@@H](N)C(=O)N[C@@H](C(=O)O)[C@@H]1O[C@H](n2ccc(=O)[nH]c2=O)[C@@H](O)[C@H]1O)[C@@H](O)c1ccc(O)cn1    117
COc1ccc2c(c1)[N+](C)(C)C(C)(C)C=C2C    103

====

# METHOD DESCRIPTION: reduced mouse 2C T cell binding to pMHC/ICAM-1 vesicles – MLPCN validation set, flow cytometry, LFA-1/ICAM-1 modulator project, pilot screen (AID 2523);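 further: mean PE anti-B7-1 fluorescence of CD8+ cells relative to row control; 100% = QL9-loaded vesicles with DMSO vehicle in the same plate row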
# CONDITION DETAILS: 2C mouse CD8+ T cells, at 7 µM, stronger effect = lower value
Rule for this label: Met means vesicle binding response is less than 200%; Not met means vesicle binding response is at least 200%.

O=c1ccc2c(o1)/C(=C/C=C(Cl)Cl)CCC2    Not met
NS(=O)(=O)c1ccc(CNC(=O)c2cc(-c3ccccc3)nc3ccccc23)cc1    Not met
C=C(C)Cn1c(NCCOC)nc2c1c(=O)[nH]c(=O)n2C    Not met
CC12CCC(C(=O)NCc3ccccn3)(OC1=O)C2(C)C (stereo not given)    Met
Cc1nc(NC(CC(C)C)C(=O)O)c2nc(C)oc2n1 (stereo not given)    Met

====

# ASSAY SYSTEM: AP-2 complex subunit beta (Homo sapiens) (UniProt P63010)
# Sequence (P63010 whole entry, looked up, one chain of several): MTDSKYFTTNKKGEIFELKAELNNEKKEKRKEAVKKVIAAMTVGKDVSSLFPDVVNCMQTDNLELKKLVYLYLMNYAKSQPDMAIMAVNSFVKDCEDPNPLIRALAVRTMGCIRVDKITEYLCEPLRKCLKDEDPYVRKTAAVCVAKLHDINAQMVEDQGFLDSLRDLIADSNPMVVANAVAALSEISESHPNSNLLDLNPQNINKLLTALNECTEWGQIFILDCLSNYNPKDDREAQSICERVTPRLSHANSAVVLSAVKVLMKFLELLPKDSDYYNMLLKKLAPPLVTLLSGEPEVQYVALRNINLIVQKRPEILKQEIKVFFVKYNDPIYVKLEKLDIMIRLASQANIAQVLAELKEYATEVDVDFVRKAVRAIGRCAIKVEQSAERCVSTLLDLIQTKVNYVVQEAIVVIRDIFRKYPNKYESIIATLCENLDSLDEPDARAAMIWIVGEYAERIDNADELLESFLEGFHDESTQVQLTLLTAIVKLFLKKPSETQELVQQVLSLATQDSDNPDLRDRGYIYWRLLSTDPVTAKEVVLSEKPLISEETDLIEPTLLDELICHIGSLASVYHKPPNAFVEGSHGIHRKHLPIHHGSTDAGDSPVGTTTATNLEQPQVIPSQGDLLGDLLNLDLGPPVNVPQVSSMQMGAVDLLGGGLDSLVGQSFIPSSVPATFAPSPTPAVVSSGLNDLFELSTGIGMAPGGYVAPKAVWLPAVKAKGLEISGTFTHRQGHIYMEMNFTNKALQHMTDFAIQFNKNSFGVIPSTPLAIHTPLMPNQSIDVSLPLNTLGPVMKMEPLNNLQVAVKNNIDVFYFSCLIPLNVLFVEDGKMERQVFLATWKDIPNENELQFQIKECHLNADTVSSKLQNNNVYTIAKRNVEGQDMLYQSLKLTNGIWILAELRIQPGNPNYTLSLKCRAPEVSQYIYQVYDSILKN
# METHOD DESCRIPTION: beta-arrestin/AP2 interaction blockers – biochemical, validation set, GST-AP2 beads, flow cytometry, pilot screen (AID 504541);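 further: AP2 carries R879A mutation and is captured from E. coli lysate; bead-bound FITC arrestin peptide fluorescence measuring arrestin peptide binding to AP2; 0% = DMSO wells and 100% = excess unlabeled arrestin peptide control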
# CONDITION DETAILS: FITC arrestin peptide, at 10 µM, stronger effect = higher value, AP2 beta2 appendage fragment, R879A mutant
Active and inactive are the calls of the source.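 The calls were made as follows: active = inhibition above 54%, about 3 SD of non-fluorescent compounds; inactive = the rest.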
MEASURE: inhibition

CC(=O)OCC(=O)[C@@]1(O)CC[C@H]2[C@@H]3CCC4=CC(=O)C=C[C@]4(C)[C@H]3[C@@H](O)C[C@@]21C    8.75% (inactive)
COc1ccc(C2NC(=O)c3ccccc3O2)c(OC)c1OC (stereo unspecified)    -2.37% (inactive)
COc1ccc(C(=O)CC2OC(=O)c3c2ccc(OC)c3OC)cc1 (stereo unspecified)    -3.63% (inactive)
O=C(CCc1ccccc1)Nc1ccccc1C(F)(F)F    -5.17% (inactive)
CN(C)CCN(Cc1ccccc1)c1ccccn1    49.6% (inactive)
COc1ccc2c(c1OC)C(C1c3c(cc4c(c3OC)OCO4)CCN1C)OC2=O (stereo unspecified)    -1.99% (inactive)

====

Catalogue of percent response of DMSO control values
# METHOD DESCRIPTION: TOR pathway RTG branch CIT2 reporter changes – S. cerevisiae, GFP fusion, multiplex flow cytometry, primary screen (AID 1870);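 further: barcoded CIT2-GFP strain pooled with four other GFP strains with rapamycin as positive control; median GFP fluorescence per well over plate mean of DMSO wells so 100% = DMSO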
# CONDITION DETAILS: S. cerevisiae CIT2-GFP expression, 3 h, at 10 µM, stronger effect = higher value
MEASURE: percent response of DMSO control (%)

O=C(CNC(=O)OCc1ccccc1)Oc1cc2oc(=O)cc(-c3ccccc3)c2cc1Cl    111
CC(=O)[C@H]1CC[C@H]2[C@@H]3CCC4=CC(=O)CC[C@]4(C)[C@H]3CC[C@]12C    98.6
O=C1NC(=O)C(c2ccccc2)(c2ccccc2)N1    93.9
S=C(NCc1ccccc1)NCc1cccc(CNC(=S)NCc2ccccc2)c1    93.8
CC(=O)Oc1cc2oc(=O)cc(C)c2cc1OC(C)=O    99.6
Cc1nc2ccccn2c(=O)c1CCN1CCC(C(=O)c2ccc(F)cc2)CC1    104
COc1ccc(/C=C/C(=O)Nc2ccccc2C(=O)O)cc1OC    106
COc1ccc(C(=O)NCC2OCCc3ccccc32)cc1 (stereo unspecified)    120
COc1ccc(C(=O)O)cc1F    107
Clc1cc(-c2ccc(/C=N/n3cnnc3)o2)ccc1Br    102
COc1ccccc1OS(=O)(=O)c1ccc(NC(C)=O)cc1    101

====

# System: anti-desmoglein-3 scFv antibody binding to human DSG3
# METHOD DESCRIPTION: blockers of pathogenic pemphigus antibody–desmoglein-3 binding – biochemical, validation compound set, bead-based, flow cytometry, pilot screen (AID 588368);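 further: signal is the median channel fluorescence of bead-bound GFP antibody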
# CONDITION DETAILS: Protein G beads, DSG3-Fc, scFv-GFP binding, at 10 µM, stronger effect = lower value
Catalogue of binding (% of control) values
MEASURE: binding (% of control) (%)

COc1ccc(C2CC(c3c(O)cc(C)oc3=O)=NCCS2)c(OC)c1 (configuration not stated)    108
COc1ccc(C2=NOC(COc3ccc4c(C)cc(=O)oc4c3)C2)c(OC)c1 (configuration not stated)    95.6
COc1ccc2oc(C)c(C(N)=O)c2c1    100
O=C(CNC(=O)OCc1ccccc1)Oc1cc2oc(=O)cc(-c3ccccc3)c2cc1Cl    103
CCc1nc2ccccc2c(NC(=O)CN2CC(C)CC(C)C2)c1C (configuration not stated)    93.8
Cc1ccc(OCc2nc(-c3cccnc3)no2)cc1C    98.3
Fc1ccc(NC(=S)Nc2ccccc2Cl)cc1    102
c1ccc(Nc2cccc3c(Nc4ccccc4)cccc23)cc1    91.6
O=C(Nc1ncc2c(n1)CC(c1ccco1)CC2=O)c1ccco1 (configuration not stated)    99.1
CC(C)C12CN3CC(C(C)C)(CN(C1)C3c1ccccc1O)C2=O (configuration not stated)    99
CC12CCC(C(=O)NNc3ccccc3)(C(=O)C1=O)C2(C)C (configuration not stated)    101
CC(C)Cc1ccc(C(C)C(=O)O)cc1 (configuration not stated)    107

====

# ASSAY SYSTEM: Integrin beta-1 (Homo sapiens) + Integrin alpha-4 (Homo sapiens) (UniProt P13612+P05556)
# Sequence (P05556 whole entry, looked up): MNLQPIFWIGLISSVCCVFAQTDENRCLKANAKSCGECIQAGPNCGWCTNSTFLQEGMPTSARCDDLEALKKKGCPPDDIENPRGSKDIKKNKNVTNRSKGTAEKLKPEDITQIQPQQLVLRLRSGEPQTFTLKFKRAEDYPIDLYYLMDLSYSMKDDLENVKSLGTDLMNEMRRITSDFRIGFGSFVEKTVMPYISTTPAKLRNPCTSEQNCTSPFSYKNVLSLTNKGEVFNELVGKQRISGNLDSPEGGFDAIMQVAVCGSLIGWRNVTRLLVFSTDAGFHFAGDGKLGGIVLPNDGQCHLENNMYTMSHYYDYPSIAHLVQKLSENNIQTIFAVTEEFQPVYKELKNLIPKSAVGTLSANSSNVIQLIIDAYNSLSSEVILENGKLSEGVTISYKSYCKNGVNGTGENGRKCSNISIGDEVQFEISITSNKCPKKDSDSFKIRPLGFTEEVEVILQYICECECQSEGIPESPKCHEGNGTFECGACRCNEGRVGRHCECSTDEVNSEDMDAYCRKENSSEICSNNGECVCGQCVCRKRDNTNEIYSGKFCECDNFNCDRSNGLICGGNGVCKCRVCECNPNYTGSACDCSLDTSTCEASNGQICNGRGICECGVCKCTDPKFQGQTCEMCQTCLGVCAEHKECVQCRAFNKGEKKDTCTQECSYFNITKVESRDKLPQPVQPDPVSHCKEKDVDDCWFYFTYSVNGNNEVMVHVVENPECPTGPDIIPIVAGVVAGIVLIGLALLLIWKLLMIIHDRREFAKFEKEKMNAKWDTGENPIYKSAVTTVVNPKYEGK
# Sequence (P13612 whole entry, looked up): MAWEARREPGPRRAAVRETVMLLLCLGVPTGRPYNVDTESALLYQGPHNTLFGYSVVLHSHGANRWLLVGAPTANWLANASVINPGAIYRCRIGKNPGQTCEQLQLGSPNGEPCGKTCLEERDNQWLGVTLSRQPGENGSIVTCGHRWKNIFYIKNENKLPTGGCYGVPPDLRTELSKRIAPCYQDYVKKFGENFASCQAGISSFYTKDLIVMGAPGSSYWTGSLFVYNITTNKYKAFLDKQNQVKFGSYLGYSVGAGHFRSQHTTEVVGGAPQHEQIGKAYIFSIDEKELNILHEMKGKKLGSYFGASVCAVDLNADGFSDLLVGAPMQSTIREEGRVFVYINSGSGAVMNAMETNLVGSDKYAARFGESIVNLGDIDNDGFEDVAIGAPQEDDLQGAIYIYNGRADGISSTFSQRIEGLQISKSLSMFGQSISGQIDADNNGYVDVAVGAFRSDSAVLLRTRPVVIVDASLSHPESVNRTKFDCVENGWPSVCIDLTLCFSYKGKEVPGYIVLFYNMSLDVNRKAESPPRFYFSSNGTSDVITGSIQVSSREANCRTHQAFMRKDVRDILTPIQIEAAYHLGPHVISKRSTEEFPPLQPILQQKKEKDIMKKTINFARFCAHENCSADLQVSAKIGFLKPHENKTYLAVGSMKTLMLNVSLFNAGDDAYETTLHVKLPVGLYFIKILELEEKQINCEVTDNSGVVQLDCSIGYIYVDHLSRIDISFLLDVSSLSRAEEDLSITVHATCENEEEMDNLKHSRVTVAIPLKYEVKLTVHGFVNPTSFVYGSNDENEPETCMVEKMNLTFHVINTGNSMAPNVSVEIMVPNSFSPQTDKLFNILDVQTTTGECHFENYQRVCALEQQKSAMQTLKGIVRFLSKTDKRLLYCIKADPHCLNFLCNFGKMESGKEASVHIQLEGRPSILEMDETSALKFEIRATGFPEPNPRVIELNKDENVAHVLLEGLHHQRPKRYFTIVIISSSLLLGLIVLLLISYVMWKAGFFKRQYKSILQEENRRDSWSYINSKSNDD
# METHOD DESCRIPTION: alpha4beta1 integrin LIBS antibody binding reduction – U937 cells, HUTS-21 mAb, flow cytometry, validation set, VLA-4 allosteric modulator project, pilot screen (AID 2674);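 further: antibody binding induced by the VLA-4 ligand LDV present at three times its Kd; 0% = LDV ligand with antibody and no compound and 100% = antibody without LDV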
# CONDITION DETAILS: HUTS-21 LIBS mAb binding, at 6.7 µM, stronger effect = higher value, binding induced by LDV ligand
Threshold rule: inhibition greater than or equal to -10% is satisfied; below that, not satisfied.

O=C(c1cccnc1)N1N=C(C2CC2)CC1(O)C(F)(F)F (stereo unspecified)    satisfied
Cc1ccc(C2CC(=O)C(C=NCCN3CCN(CC(=O)Nc4cc(C)cc(C)c4)CC3)=C(O)C2)cc1 (stereo unspecified)    not satisfied
CC(C)C(CCN1C(=O)CCC1=O)C1CCOC(C)(C)C1 (stereo unspecified)    satisfied
Cc1cc(-c2nn(-c3ccccc3F)cc2CN2CCCC(O)C2)c(C)s1 (stereo unspecified)    satisfied
COc1ccc(-c2[nH]ncc2CN(CCO)Cc2cccs2)c(F)c1    satisfied
O=C(/C=C/c1ccco1)Nc1ccccc1C(=O)O    not satisfied
c1ccc(Nc2cccc3c(Nc4ccccc4)cccc23)cc1    not satisfied
COc1cc(C(=S)N(C)C)ccc1O    not satisfied
O=C(O)[C@H](Cc1ccccc1)NC(=O)N1CCC(Cc2ccccc2)CC1    satisfied
CC1(C)CC(=O)C2=C(C1)c1c(ccc3ccccc13)NC2c1ccco1 (stereo unspecified)    satisfied
CCn1cc(C(=O)O)c(=O)c2ccc(C)nc21    not satisfied
